For each of the molecules below, state its IC50.
# assay.overview: Cytotoxicity against human MRC-5 cells
# Assay type: cell-based
# experimental.setup: human, MRC-5 cells, human MRC-5 cells; read-out: Cytotoxicity MRC-5 IC50
Give the value in µg/mL but do not write µg/mL after it.

Query block: Any idea what IC50 was measured for C/C=C(/CO)[C@H](CCN=[N+]=[N-])[C@@](C)(O)c1cc2ccccc2[nH]1 [(−)-(15S,16R)-33] ?
Result block: 17.8

Query block: Another molecule to check: C/C=C1/C(=O)O[C@H](C)[C@H]1CCN=[N+]=[N-] [(−)-(15S,16R)-39]
Result block: 54

Query block: How about CC=C1CN2CCC1C(C)(O)c1[nH]c3ccccc3c1C2 (racemic) [Synthetic (±)-(15S*,16S*)-1] ?
Result block: 33.3

Query block: Entry C/C=C1/CNCC[C@@H]1[C@@](C)(O)c1cc2ccccc2[nH]1 (racemic) [(±)-(15S,16R)-37] please
Result block: 40.8

----------
# assay.overview: Cytotoxicity against human MRC-5 cells
# Format: cell-based
# experimental.setup: human, Cytotoxicity MRC-5 IC50
# Experimental: Naturally occurring and synthetic compounds were tested for antimalarial activity against Plasmodium falciparum parasites (chloroquine-resistant K1 strain and chloroquine-susceptible FCR3 strain) and for cytotoxicity (against human MCR-5 cells), in comparison with the first-line antimalarial artemisinin.
assay.endpoint: IC50 (µg/mL)
Response body: numeric value in µg/mL, unit text excluded.

Query block: What value of IC50 has been recorded for this entry: C[C@@H]1CC[C@H]2[C@@H](C)C(=O)O[C@@H]3O[C@@]4(C)CC[C@@H]1[C@]32OO4 [Artemisinin, reference compound]
Result block: 45.2

----------
Task for the reader: assign each of the following compounds its reported Selectivity index (SI) M/K.
# Tested on: Plasmodium falciparum (chloroquine-resistant K1 strain)
# assay.overview: In vitro antimalarial activity, K1 strain
# Type: cell-based
# experimental.setup: MRC-5/K1
Format: numeric value only, no unit, no commentary.

Query block: Name the reported Selectivity index (SI) M/K value associated with the compound C[C@@H]1CC[C@H]2[C@@H](C)C(=O)O[C@@H]3O[C@@]4(C)CC[C@@H]1[C@]32OO4 [Artemisinin, reference compound]
Result block: 7528

Query block: Query CC=C1CN2CCC1C(C)(O)c1[nH]c3ccccc3c1C2 (single isomer, unassigned; (+)) [Synthetic (+)-(15S,16R)-1] next
Result block: 5.7

Query block: Param item: C/C=C1/C(=O)O[C@H](C)[C@H]1CCN=[N+]=[N-] [(−)-(15S,16R)-39]
Result block: 5.8

Query block: Query C/C=C(/CO)[C@H](CCN=[N+]=[N-])[C@@](C)(O)c1cc2ccccc2[nH]1 [(−)-(15S,16R)-33] next
Result block: 2.3

Query block: Same question for C/C=C1/CNCC[C@@H]1[C@@](C)(O)c1cc2ccccc2[nH]1 (racemic) [(±)-(15S,16R)-37] please.
Result block: 4.5

----------
# System: Plasmodium falciparum (chloroquine-susceptible FCR3 strain)
# assay.overview: In vitro antimalarial activity, FCR3 strain
# Format: cell-based
# experimental.setup: Plasmodium falciparum, FCR3; chloroquine-sensitive strain, in vitro
Exercise: for every item that follows, state its recorded IC50.

Query block: GET /values?readout=IC50&item= C/C=C1/C(=O)O[C@H](C)[C@H]1CCN=[N+]=[N-] [(−)-(15S,16R)-39]
Result block: > 12.5 µg/mL

Query block: One more compound: C/C=C1/CNCC[C@@H]1[C@@](C)(O)c1cc2ccccc2[nH]1 (racemic) [(±)-(15S,16R)-37]
Result block: > 12.5 µg/mL

Query block: Also C/C=C(/COc1ncccc1[N+](=O)[O-])[C@H](CCN=[N+]=[N-])[C@@](C)(O)c1cc2ccccc2[nH]1 [(−)-(15S,16R)-34] , if possible.
Result block: > 12.5 µg/mL

Query block: C/C=C(/CO)[C@H](CCN=[N+]=[N-])[C@@](C)(O)c1cc2ccccc2[nH]1 [(−)-(15S,16R)-33] ?
Result block: 7.17 µg/mL

Data provenance is paper PMC4935745.
